biological target: Phosphatidylinositol 4,5-bisphosphate 3-kinase catalytic subunit alpha isoform (Mus musculus); assay: SelectScreen Biochemical Kinase Assay
Sequence (P42337 whole entry, canonical isoform): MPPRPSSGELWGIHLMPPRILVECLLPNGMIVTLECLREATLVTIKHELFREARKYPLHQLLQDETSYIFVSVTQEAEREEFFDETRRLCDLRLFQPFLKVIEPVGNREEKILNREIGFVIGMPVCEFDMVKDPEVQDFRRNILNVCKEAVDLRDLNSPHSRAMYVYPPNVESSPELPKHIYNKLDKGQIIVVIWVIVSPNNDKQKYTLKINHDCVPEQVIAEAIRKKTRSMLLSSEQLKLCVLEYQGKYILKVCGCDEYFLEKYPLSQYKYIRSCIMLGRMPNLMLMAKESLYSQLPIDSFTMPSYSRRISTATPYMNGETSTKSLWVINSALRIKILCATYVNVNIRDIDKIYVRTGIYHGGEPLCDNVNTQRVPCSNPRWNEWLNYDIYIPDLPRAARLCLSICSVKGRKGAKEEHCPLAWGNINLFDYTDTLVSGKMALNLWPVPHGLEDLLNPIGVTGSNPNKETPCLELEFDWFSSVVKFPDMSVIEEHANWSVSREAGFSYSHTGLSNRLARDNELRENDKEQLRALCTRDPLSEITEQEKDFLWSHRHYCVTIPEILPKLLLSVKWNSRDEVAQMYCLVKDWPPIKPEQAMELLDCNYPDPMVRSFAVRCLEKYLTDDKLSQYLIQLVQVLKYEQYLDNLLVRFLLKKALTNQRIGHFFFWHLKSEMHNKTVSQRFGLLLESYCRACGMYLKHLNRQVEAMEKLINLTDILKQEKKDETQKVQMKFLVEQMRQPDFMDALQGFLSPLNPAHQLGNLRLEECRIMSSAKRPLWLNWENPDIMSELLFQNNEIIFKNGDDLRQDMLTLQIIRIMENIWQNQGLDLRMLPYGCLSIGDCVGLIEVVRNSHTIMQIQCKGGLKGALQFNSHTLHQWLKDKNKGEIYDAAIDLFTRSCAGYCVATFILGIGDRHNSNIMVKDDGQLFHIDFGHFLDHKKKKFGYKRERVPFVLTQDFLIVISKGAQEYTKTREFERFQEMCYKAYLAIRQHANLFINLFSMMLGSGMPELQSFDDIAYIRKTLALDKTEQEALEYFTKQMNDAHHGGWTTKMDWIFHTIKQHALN
parameter.measured: pIC50
By convention, pIC50 is the negative base-10 log of a molar concentration.

Entry `C[C@H](Nc1ncnc2[nH]cnc12)c1nc2ccc(F)cc2c(=O)n1-c1ccccc1` , pIC50 reported as 5.26

---

Biological target: Phosphatidylinositol 4,5-bisphosphate 3-kinase catalytic subunit beta isoform (Mus musculus, UniProt Q8BTI9)
Sequence (Q8BTI9 whole entry, canonical isoform): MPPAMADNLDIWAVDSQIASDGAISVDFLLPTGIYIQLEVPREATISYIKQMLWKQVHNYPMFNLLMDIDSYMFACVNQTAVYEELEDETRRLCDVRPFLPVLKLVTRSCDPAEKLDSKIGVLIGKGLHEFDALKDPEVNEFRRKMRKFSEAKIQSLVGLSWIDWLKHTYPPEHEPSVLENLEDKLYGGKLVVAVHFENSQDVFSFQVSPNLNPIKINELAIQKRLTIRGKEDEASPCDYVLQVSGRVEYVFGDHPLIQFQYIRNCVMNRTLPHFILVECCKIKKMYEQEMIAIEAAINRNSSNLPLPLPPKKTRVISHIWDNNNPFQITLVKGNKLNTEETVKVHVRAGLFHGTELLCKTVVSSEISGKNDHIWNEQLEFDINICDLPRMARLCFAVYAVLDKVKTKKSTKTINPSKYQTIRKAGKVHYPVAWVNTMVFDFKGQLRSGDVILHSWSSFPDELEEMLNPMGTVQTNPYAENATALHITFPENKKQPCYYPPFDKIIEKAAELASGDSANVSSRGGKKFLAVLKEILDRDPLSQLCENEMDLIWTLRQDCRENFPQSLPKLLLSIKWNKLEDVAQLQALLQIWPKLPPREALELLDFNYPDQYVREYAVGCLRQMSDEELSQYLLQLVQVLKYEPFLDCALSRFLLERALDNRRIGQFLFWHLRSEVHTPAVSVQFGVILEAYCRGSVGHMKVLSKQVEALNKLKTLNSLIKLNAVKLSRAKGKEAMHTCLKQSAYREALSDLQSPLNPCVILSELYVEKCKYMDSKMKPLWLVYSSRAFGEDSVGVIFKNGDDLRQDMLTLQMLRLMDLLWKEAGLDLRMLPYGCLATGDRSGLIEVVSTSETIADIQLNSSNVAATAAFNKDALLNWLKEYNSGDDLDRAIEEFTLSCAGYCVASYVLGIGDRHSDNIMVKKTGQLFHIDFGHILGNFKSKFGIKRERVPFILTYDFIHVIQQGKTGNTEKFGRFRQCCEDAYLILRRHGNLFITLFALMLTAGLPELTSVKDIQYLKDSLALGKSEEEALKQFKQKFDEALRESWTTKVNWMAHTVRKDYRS
Experiment: SelectScreen Biochemical Kinase Assay
Procedure: Biochemical in vitro lipid kinase assays were performed by the SelectScreen biochemical kinase assay service (Invitrogen Ltd.). A stock solution of GS-9820 was prepared in DMSO at a concentration of 10 mM. Ten-point kinase inhibitory activities were measured over a concentration range (5 to 10^4 nM) with ATP at a concentration consistent with the Km of each of the enzymes.
parameter.measured: IC50

Entry C[C@H](Nc1ncnc2[nH]cnc12)c1nc2ccc(F)cc2c(=O)n1-c1ccccc1 [GS-9820] , IC50 reported as 3.38 µM

---

biological target: Phosphatidylinositol 4,5-bisphosphate 3-kinase catalytic subunit delta isoform (Mus musculus); assay: SelectScreen Biochemical Kinase Assay
Sequence (O35904 whole entry, canonical isoform): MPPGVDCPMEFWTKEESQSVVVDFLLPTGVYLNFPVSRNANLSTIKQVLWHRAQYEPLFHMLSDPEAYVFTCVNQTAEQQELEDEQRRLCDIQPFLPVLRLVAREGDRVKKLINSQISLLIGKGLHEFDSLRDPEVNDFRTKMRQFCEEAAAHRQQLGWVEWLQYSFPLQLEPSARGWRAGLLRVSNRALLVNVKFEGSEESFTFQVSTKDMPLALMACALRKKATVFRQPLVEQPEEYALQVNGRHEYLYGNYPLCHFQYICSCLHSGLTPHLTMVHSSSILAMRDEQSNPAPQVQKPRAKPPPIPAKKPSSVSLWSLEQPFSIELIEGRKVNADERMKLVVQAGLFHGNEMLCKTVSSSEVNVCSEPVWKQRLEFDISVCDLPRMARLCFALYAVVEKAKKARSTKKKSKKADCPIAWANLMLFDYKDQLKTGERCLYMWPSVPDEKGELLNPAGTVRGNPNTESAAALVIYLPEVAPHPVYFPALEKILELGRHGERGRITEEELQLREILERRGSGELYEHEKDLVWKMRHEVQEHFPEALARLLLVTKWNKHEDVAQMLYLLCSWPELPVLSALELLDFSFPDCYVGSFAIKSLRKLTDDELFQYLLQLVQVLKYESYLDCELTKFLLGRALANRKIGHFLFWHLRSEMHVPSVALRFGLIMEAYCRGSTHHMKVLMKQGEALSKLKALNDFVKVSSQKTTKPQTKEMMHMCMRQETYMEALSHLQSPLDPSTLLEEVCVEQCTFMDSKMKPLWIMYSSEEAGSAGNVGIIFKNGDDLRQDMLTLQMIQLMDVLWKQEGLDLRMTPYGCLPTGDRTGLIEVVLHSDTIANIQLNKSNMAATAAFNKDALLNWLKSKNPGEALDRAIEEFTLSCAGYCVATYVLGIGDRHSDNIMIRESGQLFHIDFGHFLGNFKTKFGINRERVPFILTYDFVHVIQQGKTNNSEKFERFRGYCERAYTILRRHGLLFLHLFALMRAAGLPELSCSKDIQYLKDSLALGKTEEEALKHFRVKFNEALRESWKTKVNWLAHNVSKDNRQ
parameter.measured: pIC50
By convention, pIC50 is the negative base-10 log of a molar concentration.

Entry `C[C@H](Nc1ncnc2[nH]cnc12)c1nc2ccc(F)cc2c(=O)n1-c1ccccc1` , pIC50 reported as 7.90

---

molecular target: Phosphatidylinositol 4,5-bisphosphate 3-kinase catalytic subunit gamma isoform (Mus musculus, UniProt Q9JHG7); assay: SelectScreen Biochemical Kinase Assay
Sequence (Q9JHG7 whole entry, canonical isoform): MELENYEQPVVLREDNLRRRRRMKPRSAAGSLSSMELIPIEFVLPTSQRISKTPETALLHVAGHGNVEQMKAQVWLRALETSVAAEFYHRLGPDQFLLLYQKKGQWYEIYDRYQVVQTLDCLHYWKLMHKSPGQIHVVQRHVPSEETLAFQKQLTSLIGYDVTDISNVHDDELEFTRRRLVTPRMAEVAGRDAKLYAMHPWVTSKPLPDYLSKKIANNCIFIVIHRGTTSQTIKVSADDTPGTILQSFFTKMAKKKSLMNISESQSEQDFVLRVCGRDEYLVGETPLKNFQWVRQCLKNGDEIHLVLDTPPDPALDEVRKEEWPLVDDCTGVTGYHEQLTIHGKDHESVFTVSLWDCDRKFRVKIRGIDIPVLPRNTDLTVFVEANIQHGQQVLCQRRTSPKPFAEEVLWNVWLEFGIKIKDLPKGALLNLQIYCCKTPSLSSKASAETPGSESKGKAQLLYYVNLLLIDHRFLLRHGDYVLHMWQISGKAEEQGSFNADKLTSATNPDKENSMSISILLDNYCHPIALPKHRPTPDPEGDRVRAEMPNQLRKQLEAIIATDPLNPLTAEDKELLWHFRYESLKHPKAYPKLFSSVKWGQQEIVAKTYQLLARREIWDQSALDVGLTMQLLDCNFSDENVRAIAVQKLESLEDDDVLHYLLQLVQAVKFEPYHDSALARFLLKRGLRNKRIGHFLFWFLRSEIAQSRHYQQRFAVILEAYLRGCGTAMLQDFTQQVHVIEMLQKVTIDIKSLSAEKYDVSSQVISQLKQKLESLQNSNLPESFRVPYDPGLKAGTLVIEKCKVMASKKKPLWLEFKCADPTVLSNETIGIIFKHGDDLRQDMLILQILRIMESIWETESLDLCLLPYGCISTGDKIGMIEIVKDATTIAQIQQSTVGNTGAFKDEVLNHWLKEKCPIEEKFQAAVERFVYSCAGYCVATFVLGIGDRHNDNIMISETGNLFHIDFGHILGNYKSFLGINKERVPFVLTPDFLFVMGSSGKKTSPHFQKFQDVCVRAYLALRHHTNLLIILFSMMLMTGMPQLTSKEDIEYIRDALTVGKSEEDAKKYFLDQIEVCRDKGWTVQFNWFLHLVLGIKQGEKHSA
parameter.measured: pIC50
By convention, pIC50 is the negative base-10 log of a molar concentration.

Entry C[C@H](Nc1ncnc2[nH]cnc12)c1nc2ccc(F)cc2c(=O)n1-c1ccccc1 [GS-9820] , pIC50 reported as 5.86
